Tested on: Echinochloa crus-galli (ECHCG)
Assay: Post-emergence herbicidal activity, glasshouse pot test
Assay type: in vivo
Conditions: 1000 g/ha, post-emergence spray after 8 days cultivation, evaluated after 13 days, damage score 0-5
PROPERTY_MEASURED: Control of weed species after post-emergence application, ECHCG
Write no unit; give the number alone.

- MOLECULE: "O=C(Nc1cnc(-c2cncc(F)c2)nc1C(F)(F)F)C1CCCCC1"
  RESULT_VALUE: 3
- MOLECULE: "COCCC(=O)Nc1cnc(-c2cncnc2)nc1C(F)(F)F"
  RESULT_VALUE: 5
- MOLECULE: "CCCC(=O)Nc1cnc(-c2cncc(F)c2)nc1C(F)(F)F"
  RESULT_VALUE: 4
- MOLECULE: "O=C(COc1ccccc1)Nc1cnc(-c2cncc(F)c2)nc1C(F)(F)F"
  RESULT_VALUE: 4

Now consider the entry below.
Field request: Control of weed species after post-emergence application, ECHCG | item: COCC(=O)Nc1cnc(-c2cncc(F)c2)nc1C(F)(F)F
4
